tested_on: UniProt:P56817
Sequence (P56817 whole entry): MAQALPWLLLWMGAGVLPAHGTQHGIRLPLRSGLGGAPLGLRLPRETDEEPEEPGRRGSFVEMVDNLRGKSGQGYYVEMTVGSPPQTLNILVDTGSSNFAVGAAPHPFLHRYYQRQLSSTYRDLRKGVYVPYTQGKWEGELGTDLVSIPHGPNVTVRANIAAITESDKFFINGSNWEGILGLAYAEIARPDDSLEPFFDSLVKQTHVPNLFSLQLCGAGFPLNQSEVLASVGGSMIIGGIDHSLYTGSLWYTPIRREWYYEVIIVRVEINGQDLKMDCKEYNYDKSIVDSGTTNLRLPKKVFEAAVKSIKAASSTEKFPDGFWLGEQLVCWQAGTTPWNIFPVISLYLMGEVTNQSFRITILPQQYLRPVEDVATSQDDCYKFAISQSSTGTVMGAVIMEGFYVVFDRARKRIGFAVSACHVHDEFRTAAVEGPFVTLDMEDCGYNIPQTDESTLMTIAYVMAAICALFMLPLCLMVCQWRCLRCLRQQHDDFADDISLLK
pIC50: −log10 of the molar value.
Measured pIC50 accompanies every entry in the list below.

[
  {
    "molecule": "CCCCNC(=O)NCc1ccc(CN2C(=N)NC(C)(CC(C)C)C2=O)cc1 (stereo not given)",
    "pIC50": 4.11
  },
  {
    "molecule": "CCCCNC(=O)NCc1ccc(CN2C(=N)NC(CCc3ccccc3)(CC(C)C)C2=O)cc1 (racemic)",
    "pIC50": 4.30
  },
  {
    "molecule": "CCCCNC(=O)NCc1ccc(CN2C(=N)NC(CCC3CCCCC3)(CC(C)C)C2=O)cc1 (racemic)",
    "pIC50": 5.52
  },
  {
    "molecule": "CN1C(=N)N[C@](CCC2CCCCC2)(CC2CCCCC2)C1=O",
    "pIC50": 6.22
  },
  {
    "molecule": "CCCCNC(=O)NCc1ccc(CN2C(=N)NC(CC3CCCCC3)(CC3CCCCC3)C2=O)cc1",
    "pIC50": 5.68
  }
]
